biological target: T1, MMP-26 (human); assay: cell-based or functional assay
T1 sequence: ASDF
For each of the binders below, state its % Inhibition of JEG-3 cell invasion, 1 µg/ml (further test).
One number for each entry, in %.

Here's what some known entries look like.
In one line, give reported % Inhibition of JEG-3 cell invasion, 1 µg/ml (further test) of the entry C12 (antibody, V domains shown) VH: EVQLLESGGGLVQPGGSLRLSCAASGFTFSAYNMMWVRQAPGKGLEWVSRIYPSGGYTLYADSVKGRFTISRDNSKNTLYLQMNSLRAEDTAVYYCARQKLMIRAVRPFDYWGQGTLVTVSS VL: QSELTQPPSVSVSPAQTASITCSGDKLGDKYACWYQQKPGQSPVLVIYEDTKRPSGIPERFSGSNSGNTATLTISGTQVMDEADYYCQVWDSSTAVFGGGTKLTVLG . 36

Specify measured % Inhibition of JEG-3 cell invasion, 1 µg/ml (further test) for A11 (antibody, human IgG4, V domains shown) VH: EVQLLESGGGLVQPGGSLRLSCAASGFTFSWYTMMWVRQAPGKGLEWVSRISPSGGHTLYADSVKGRFTISRDNSZNTLYLQMNSLRAEDTAVYYCARDTWDDYYDSSGYYNDFDYWGQGTLVTVSS VL: QSALTQPPSVSLAPGQTARITCGGNNIGTKSVHWYQQKPGQAPVLVVYDDSDRPSGIPERFSGSNSGNTATLTISRVEAGDEADYYCQVWDSGSDHQVFGGGTKLTVLG . 51

Pending binder:
State its % Inhibition of JEG-3 cell invasion, 1 µg/ml (further test) for this binder: D08 (antibody, human IgG4, V domains shown) VH: EVQLLESGGGLVQPGGSLRLSCAASGFTFSFYAMWWVRQAPGKGLEWVSRIYSSGGKTWYADSVKGRFTISRDNSKNTLYLQMNSLRAEDTAVYYCARVGMSTYAFDIWGQGTMVTVSS VL: DIQMTQSPSSLSASVGDRVTITCRASQSISDYLNWYQQKPGKAPDLLIYAASSLQSGVPSRFSGSGSGTDFTLTVSSLQPEDFATYFCQQSYSIPLTFGGGTKVEITR 56
